# method_notes: Serum and tissue levels of pterostilbene by GC-MS
# Format: in vivo, rat
# experimental_setup: male, Wistar, rat, epididymis, oral, PT15: 15 mg/kg body weight/d in diet, dry weight, n = 8, read-out: Epididymis level of pterostilbene
measurement_label: concentration at 6 weeks

Query block: Could you please provide reported concentration at 6 weeks for COc1cc(/C=C/c2ccc(O)cc2)cc(OC)c1 ? Thanks!
Result block: 10.9 ng/g

====

# method_notes: Serum and tissue levels of pterostilbene by GC-MS
# Assay type: in vivo, rat
# experimental_setup: male, Wistar, rat, serum, oral, PT15: 15 mg/kg body weight/d in diet, after glucuronidase/sulfatase hydrolysis, n = 8, read-out: Serum level of pterostilbene
measurement_label: concentration at 6 weeks (ng/mL)
Use ng/mL as the unit, but write only the number.

Query block: Could you please provide reported concentration at 6 weeks for COc1cc(/C=C/c2ccc(O)cc2)cc(OC)c1 ? Thanks!
Result block: 384

====

# method_notes: Serum and tissue levels of pterostilbene by GC-MS
# Assay type: in vivo, rat
# experimental_setup: male, Wistar, rat, liver, oral, PT15: 15 mg/kg body weight/d in diet, fresh weight, n = 8, read-out: Liver level of pterostilbene
measurement_label: concentration at 6 weeks (ng/g)
Use ng/g as the unit, but write only the number.

Query block: Could you please provide reported concentration at 6 weeks for COc1cc(/C=C/c2ccc(O)cc2)cc(OC)c1 ? Thanks!
Result block: 308

====

# method_notes: Serum and tissue levels of pterostilbene by GC-MS
# Type: in vivo, rat
# experimental_setup: male, Wistar, rat, liver, oral, PT30: 30 mg/kg body weight/d in diet, fresh weight, n = 6, read-out: Liver level of pterostilbene
measurement_label: concentration at 6 weeks (ng/g)
Use ng/g as the unit, but write only the number.

Query block: Could you please provide reported concentration at 6 weeks for COc1cc(/C=C/c2ccc(O)cc2)cc(OC)c1 ? Thanks!
Result block: 726

====

# method_notes: Serum and tissue levels of pterostilbene by GC-MS
# Format: in vivo, rat
# experimental_setup: male, Wistar, rat, epididymis, oral, PT30: 30 mg/kg body weight/d in diet, dry weight, n = 8, read-out: Epididymis level of pterostilbene
measurement_label: concentration at 6 weeks (ng/g)
Use ng/g as the unit, but write only the number.

Query block: Could you please provide reported concentration at 6 weeks for COc1cc(/C=C/c2ccc(O)cc2)cc(OC)c1 ? Thanks!
Result block: 30.7

====

# method_notes: Serum and tissue levels of pterostilbene by GC-MS
# Format: in vivo, rat
# experimental_setup: male, Wistar, rat, muscle, oral, PT30: 30 mg/kg body weight/d in diet, dry weight, n = 8, read-out: Muscle level of pterostilbene
measurement_label: concentration at 6 weeks (ng/g)
Use ng/g as the unit, but write only the number.

Query block: Could you please provide reported concentration at 6 weeks for COc1cc(/C=C/c2ccc(O)cc2)cc(OC)c1 ? Thanks!
Result block: 9.1
